Cited source: paper PMC10584170

molecules and their reported % inhibition female (individual replicates) R3
# System: P. falciparum female gametocytes
# measurement_notes: P. falciparum Dual Gamete Formation Assay (PfDGFA), female readout (Pfs25-positive female gametes)
# Type: cell-based, Plasmodium falciparum NF54
# applied_conditions: 2µM, 24h preincubation with gametocytes prior to induction of gametogenesis; replicate R3
Numeric answer only, unit % assumed.

A selection of reference data follows.
[[record]]
molecule = "CC(=O)Nc1ccc(Nc2c3ccccc3nc3ccccc23)cc1"
tested_target = "P. falciparum female gametocytes"
endpoint_unit = "%"
readout_value = 8.8

[[record]]
molecule = "CC(CCCCCC(=O)Nc1ccc(CC(C)NCCc2cccc(Cl)c2)cc1)NCCc1cccc(Cl)c1 (stereo not drawn)"
tested_target = "P. falciparum female gametocytes"
endpoint_unit = "%"
readout_value = 1.8

[[record]]
molecule = "Cc1nc(N)nc(N)c1-c1ccc(Br)c([N+](=O)[O-])c1"
tested_target = "P. falciparum female gametocytes"
endpoint_unit = "%"
readout_value = 2.2

[[record]]
molecule = "CCCCCCCN1CC[C@@H](CCCc2ccnc3ccc(OC)cc23)[C@@H](CNC)C1.O=C(O)C(=O)O"
tested_target = "P. falciparum female gametocytes"
endpoint_unit = "%"
readout_value = 7.1

[[record]]
molecule = "CN1CCC(NCc2ccc(-c3ccc(S(=O)(=O)NCc4ccccc4)s3)cc2)CC1.O=C(O)C(F)(F)F"
tested_target = "P. falciparum female gametocytes"
endpoint_unit = "%"
readout_value = 1.4

[[record]]
molecule = "COc1cc2ccccc2cc1OCCCN1CCN(CC(c2ccc(F)cc2)N2CCN(C(C)C)CC2)CC1.Cl (stereo not drawn)"
tested_target = "P. falciparum female gametocytes"
endpoint_unit = "%"
readout_value = 8.0

[[record]]
molecule = "Br.C[C@@H](COc1ccc(-c2ccccc2)cc1)CON1C(N)=NC(N)=NC1(C)C"
tested_target = "P. falciparum female gametocytes"
endpoint_unit = "%"
readout_value = 32.8

[[record]]
molecule = "Clc1ccc(CNCCCCCCNCc2ccc(Cl)cc2)cc1.O=C(O)c1ccc2ccccc2c1O"
tested_target = "P. falciparum female gametocytes"
endpoint_unit = "%"
readout_value = -5.3

[[record]]
molecule = "Cc1ccc(-n2cc(CNCC3CCN(CCO)CC3)c(-c3ccc(F)cc3)n2)cc1"
tested_target = "P. falciparum female gametocytes"
endpoint_unit = "%"
readout_value = 19.4

[[record]]
molecule = "O=C(Nc1cccc(-c2nn3ncccc3c2-c2ccnc(Nc3cccc(-c4cnco4)c3)n2)c1)c1c(F)cccc1F"
tested_target = "P. falciparum female gametocytes"
endpoint_unit = "%"
readout_value = -14.6


What value of measured % inhibition female (individual replicates) R3 is listed for O=C(O)C(F)(F)F.O=S(=O)(NCCN1CCCC1)c1cccc(-c2ccc(CNC3Cc4ccccc4C3)cc2)c1 ?
3.4

What does the record list as % inhibition female (individual replicates) R3 for CN(C)S(=O)(=O)n1ccc2c3c(N)nc(N)nc3ccc21 ?
33.5

* * *

# System: P. falciparum female gametocytes
# measurement_notes: P. falciparum Dual Gamete Formation Assay (PfDGFA), female readout (Pfs25-positive female gametes)
# Type: cell-based, Plasmodium falciparum NF54
# applied_conditions: Plasmodium falciparum; 2µM, 24h preincubation with gametocytes; replicate R1; read-out: % inhibition female (individual replicates) R1
endpoint_label: inhibition at 2 µM (%)
Respond with the bare value in %.

# annotated cases, reported inhibition at 2 µM shown
[[record]]
compound = "Cl.NCC1(c2nc(-c3ccc(Cl)c(O)c3)c(-c3ccncc3)[nH]2)CCCCC1"
endpoint_unit = "%"
readout_value = 92.5

[[record]]
compound = "Br.c1cc(Nc2nc(-c3ccc(-c4csc(Nc5ccncc5)n4)cc3)cs2)ccn1"
endpoint_unit = "%"
readout_value = 90.8

[[record]]
compound = "CC(C)(CN)c1nc(-c2ccc(Cl)c(O)c2)c(-c2ccncc2)[nH]1.Cl"
endpoint_unit = "%"
readout_value = 22.1

[[record]]
compound = "CN1CCN(c2ccc(Nc3ncc(Cl)c(Nc4cccnc4C(N)=O)n3)cc2)CC1.Cl"
endpoint_unit = "%"
readout_value = -3.8

[[record]]
compound = "CN(C)c1ccnc2ccc(NC(=O)Nc3ccnc4ccccc34)cc12"
endpoint_unit = "%"
readout_value = 32.7

[[record]]
compound = "C#C[C@H]1O[C@@H](n2cnc3c(Nc4cc(Br)cc(C(F)(F)F)c4)ncnc32)[C@H](O)[C@@H]1O"
endpoint_unit = "%"
readout_value = 8.3

[[record]]
compound = "CN1CCN(c2ccc(Nc3ncc(C#N)c(Nc4ccccc4C(N)=O)n3)cc2)CC1.Cl"
endpoint_unit = "%"
readout_value = 7.5

[[record]]
compound = "Nc1cc(C=Cc2ccc([N+](=O)[O-])s2)nc2ccccc12"
endpoint_unit = "%"
readout_value = 71.6


Report inhibition at 2 µM for O=c1c(Br)ccccc1Br tested on P. falciparum female gametocytes.
93.6

Please provide the recorded inhibition at 2 µM for CCN(CC)CCN(Cc1ccc(-c2ccc(C(F)(F)F)cc2)cc1)C(=O)Cn1cc(Cc2cnn(C)c2)c(=O)nc1/C=C/c1cccc(F)c1F.O=C(O)C(O)C(O)C(=O)O , tested on P. falciparum female gametocytes.
34

inhibition at 2 µM of CCCCNS(=O)(=O)c1ccc(NC(=O)c2cc([N+](=O)[O-])ccc2Cl)cc1 on P. falciparum female gametocytes?
27.9

Which measured inhibition at 2 µM belongs to CCN(CC)CCN(Cc1ccc(-c2ccc(C(F)(F)F)cc2)cc1)C(=O)Cn1cc(Cc2cnn(C)c2)c(=O)nc1/C=C/c1ccc(F)cc1.O=C(O)C(O)C(O)C(=O)O , tested on P. falciparum female gametocytes?
41.2

What inhibition at 2 µM appears in the records for this compound with P. falciparum female gametocytes? O=C(c1ccc([N+](=O)[O-])o1)N1CCC(Cc2ccc(C(F)(F)F)cc2)CC1
35.5

Form field: inhibition at 2 µM recorded for Nc1cc(C=Cc2ccc([N+](=O)[O-])o2)nc2ccccc12 with P. falciparum female gametocytes (enter value)
96.4

Request - read-out inhibition at 2 µM | tested on P. falciparum female gametocytes | compound Cl.NC(=O)c1ccccc1Nc1nc(Nc2cccc(N3CCN(CCO)CC3)c2)ncc1Cl
11.2

Please state recorded inhibition at 2 µM (tested on P. falciparum female gametocytes) of Cc1ccc(C(C(=O)Nc2ccc(N3CCNCC3)c(Cl)c2)c2ccccc2)cc1 (centres unmarked)
54.2

Reported inhibition at 2 µM for P. falciparum female gametocytes, given Cl.O=C1Nc2ccc3ncccc3c2/C1=C/Nc1ccc(N2CCN(CCO)CC2)cc1 ?
-5.3
